- Tested system: UniProt:P00780
- Sequence (P00780 106-379): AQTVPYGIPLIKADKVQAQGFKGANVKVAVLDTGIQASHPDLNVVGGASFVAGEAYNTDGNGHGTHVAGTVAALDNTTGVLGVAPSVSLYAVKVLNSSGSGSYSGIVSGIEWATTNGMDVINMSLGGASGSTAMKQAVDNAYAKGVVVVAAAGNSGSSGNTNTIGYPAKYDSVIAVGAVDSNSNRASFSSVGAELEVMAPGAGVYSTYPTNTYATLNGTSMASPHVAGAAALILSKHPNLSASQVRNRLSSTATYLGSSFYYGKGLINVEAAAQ
Experimental readout: log10(Ki) (log10 of the value in µM)

Entry smiles | Tested system | Quantitative result
Cc1cc(B(O)O)c(C)s1 | UniProt:P00780 | 3.48
OB(O)CCc1cccc2[nH]c3ccccc3c12 | UniProt:P00780 | 3.00
COc1ccc(B(O)O)o1 | UniProt:P00780 | 3.30
OB(O)c1ccc(Br)s1 | UniProt:P00780 | 2.60
CCc1ccc(B(O)O)o1 | UniProt:P00780 | 3.30
OB(O)c1cccc2c1oc1ccccc12 | UniProt:P00780 | 2.95
COc1ccc(B(O)O)s1 | UniProt:P00780 | 3.30
OB(O)c1ccoc1 | UniProt:P00780 | 4.00
OB(O)c1cccs1 | UniProt:P00780 | 3.30
OB(O)c1ccsc1 | UniProt:P00780 | 3.30
